ASSAY TARGET: Histone deacetylase 4 (Homo sapiens, UniProt P56524)
Sequence (P56524 whole entry, the tested form may be a part): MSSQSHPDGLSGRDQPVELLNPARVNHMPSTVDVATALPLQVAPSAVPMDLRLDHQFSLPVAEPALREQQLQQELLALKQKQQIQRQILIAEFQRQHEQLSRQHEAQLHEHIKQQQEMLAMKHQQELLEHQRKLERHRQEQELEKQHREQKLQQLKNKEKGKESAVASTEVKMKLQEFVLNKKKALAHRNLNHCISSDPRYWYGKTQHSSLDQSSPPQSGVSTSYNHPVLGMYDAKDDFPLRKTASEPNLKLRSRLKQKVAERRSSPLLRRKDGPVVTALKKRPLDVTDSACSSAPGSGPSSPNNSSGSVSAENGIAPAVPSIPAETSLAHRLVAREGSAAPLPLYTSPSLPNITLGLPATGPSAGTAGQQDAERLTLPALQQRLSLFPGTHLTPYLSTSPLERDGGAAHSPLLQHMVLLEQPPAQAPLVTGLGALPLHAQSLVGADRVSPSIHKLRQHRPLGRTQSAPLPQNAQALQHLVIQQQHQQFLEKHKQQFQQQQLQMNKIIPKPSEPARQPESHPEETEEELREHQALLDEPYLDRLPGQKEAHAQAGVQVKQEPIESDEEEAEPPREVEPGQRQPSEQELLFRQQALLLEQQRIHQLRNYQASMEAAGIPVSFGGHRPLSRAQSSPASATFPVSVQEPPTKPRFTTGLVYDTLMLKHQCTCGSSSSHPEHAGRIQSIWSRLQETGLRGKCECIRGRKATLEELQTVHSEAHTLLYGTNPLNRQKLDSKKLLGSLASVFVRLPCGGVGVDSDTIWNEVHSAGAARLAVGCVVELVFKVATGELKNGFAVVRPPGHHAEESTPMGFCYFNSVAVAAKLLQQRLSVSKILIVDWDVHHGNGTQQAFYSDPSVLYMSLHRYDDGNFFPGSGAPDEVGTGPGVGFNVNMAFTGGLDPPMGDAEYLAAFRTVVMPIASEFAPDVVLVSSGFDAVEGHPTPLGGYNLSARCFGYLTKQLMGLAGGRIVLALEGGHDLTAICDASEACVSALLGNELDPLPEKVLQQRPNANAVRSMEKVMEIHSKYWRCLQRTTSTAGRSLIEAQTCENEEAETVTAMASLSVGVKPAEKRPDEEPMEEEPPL
EXPERIMENT DESCRIPTION: Inhibition of recombinant human N-terminal GST-tagged/C-terminal His-tagged HDAC4 (627 to 1084 residues) expressed in baculovirus infected Sf9 insect cells using fluorogenic substrate measured after 60 mins by FRET assay
pIC50: −log10 of the molar value.
TEST READOUT: pIC50

Task: Please look up its pIC50: C/C=C1\NC(=O)c2csc(n2)CNC(=O)C[C@@H](/C=C/CCSSCCCCCCC)OC(=O)[C@H](CCCCN)NC1=O
Output: < 5.00

----------
ASSAY TARGET: Histone deacetylase 1 (Homo sapiens)
Sequence (Q13547 whole entry, the tested form may be a part): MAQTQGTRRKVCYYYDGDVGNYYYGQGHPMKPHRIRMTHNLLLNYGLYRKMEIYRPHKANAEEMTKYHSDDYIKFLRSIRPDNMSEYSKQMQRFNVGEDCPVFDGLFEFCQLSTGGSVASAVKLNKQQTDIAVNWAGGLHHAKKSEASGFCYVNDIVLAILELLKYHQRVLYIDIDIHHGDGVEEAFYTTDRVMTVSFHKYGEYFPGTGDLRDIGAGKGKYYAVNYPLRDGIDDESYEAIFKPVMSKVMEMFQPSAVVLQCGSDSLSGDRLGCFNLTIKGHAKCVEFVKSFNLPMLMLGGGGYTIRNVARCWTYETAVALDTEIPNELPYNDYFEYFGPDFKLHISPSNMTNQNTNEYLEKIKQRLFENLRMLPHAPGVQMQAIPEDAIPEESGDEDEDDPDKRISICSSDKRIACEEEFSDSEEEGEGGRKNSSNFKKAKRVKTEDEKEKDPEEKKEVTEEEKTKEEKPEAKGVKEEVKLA
EXPERIMENT DESCRIPTION: Inhibition of recombinant human C-terminal FLAG/His-tagged HDAC1 (1 to 482 residues) expressed in Sf9 insect cells using fluorometric substrate measured after 60 mins by FRET assay
Consider the following compounds; for each one, report its pIC50.
Numbers only, as −log10 of the molar value.

C/C=C1\NC(=O)c2csc(n2)CNC(=O)C[C@@H](/C=C/CCSSCCCCCCC)OC(=O)[C@H](CCCCNC(=O)CCCCC[N+]2=C(/C=C/C=C/C=C3/N(CC)c4ccc5c(S(=O)(=O)O)cc(S(=O)(=O)O)cc5c4C3(C)C)C(C)(C)c3c2ccc2c(S(=O)(=O)[O-])cc(S(=O)(=O)O)cc32)NC1=O = 8.10
C/C=C1\NC(=O)c2csc(n2)CNC(=O)C[C@@H](/C=C/CCSC(=O)CCCCCCC)OC(=O)[C@H](C(C)C)NC1=O = 8.51

// switching to the query compound
Task: For the compound C/C=C1\NC(=O)c2csc(n2)CNC(=O)C[C@@H](/C=C/CCSSCCCCCCC)OC(=O)[C@H](CCCCN)NC1=O , what pIC50 is on record?
Output: 8.24

Data provenance: ChEMBL document CHEMBL5030507
